# Measurement target: GIPR (CHO-K1-hGIPR cells) (Homo sapiens)
# Construct: host or cells: CHO-K1
# Method notes: FACS binding assay
# Applied conditions: competition with 20 nM GIP-057, 4° C. for 1 hour, read-out: pIC50 Category (converted)
*1 amine or outer side, *2 acyl side, *3 side chain or, on linkers, in order; H or OH if unused. Where a SMILES comes first, the peptide text is derived from it. Bridges are numbered along the chain shown (N, C = ends). [ ]: non-standard residue; d: D form. The star is where a group is joined. X3 = O=C(O)CN1CCN(CC(=O)O)CCN(CC(=O)NCCCOCCOCCOCCCN*)CCN(CC(=O)O)CC1; Trp(5-Cl) = N[C@@H](Cc1c[nH]c2ccc(Cl)cc12)C(=O)O; mXylylene = c1cc(C[*:1])cc(C[*:2])c1; X7 = c1cc(CSCCN[*:2])cc(C[*:1])c1; Suc = O=C(CCC(=O)[*:2])[*:1]; Thp = NC1(C(=O)O)CCOCC1; Aib = CC(C)(N)C(=O)O
Readout name: IC50

Entry CC[C@H](C)[C@@H]1NC(=O)[C@H](CC(C)C)NC(=O)[C@H](C)NC(=O)[C@@H](NC(=O)[C@H](CC(C)C)NC(=O)[C@H](CCC(=O)O)NC(C)=O)CSCc2cccc(c2)CSC[C@@H](C(N)=O)NC1=O [GIP-327] (Ac-ELCALIC-NH2; linker 3-7 via mXylylene) , IC50 reported as > 1000 nM

get_value(item= CC[C@H](C)[C@@H]1NC(=O)C(C)(C)NC(=O)[C@H](CCC(=O)O)NC(=O)[C@@H](NC(=O)[C@H](CC(C)C)NC(=O)[C@H](Cc2c[nH]c3ccccc23)NC(=O)[C@H](Cc2c[nH]c3ccc(Cl)cc23)NC(=O)[C@@H]2CCCN2C(=O)[C@H](CC(=O)O)NC(=O)[C@@H](CC(C)C)NC(=O)CCC(=O)NCCCOCCOCCOCCCNC(=O)CN2CCN(CC(=O)O)CCN(CC(=O)O)CCN(CC(=O)O)CC2)CSCc2cccc(c2)CSCCNC1=O [GIP-305] ({X3-Suc}-[dL]DP[Trp(5-Cl)]WLCE[Aib]I; linker 7-C via X7) , readout=IC50) returns > 1000 nM

Data point: CC[C@H](C)[C@@H]1NC(=O)[C@H](CC(C)C)NC(=O)C2(CCOCC2)NC(=O)[C@@H](NC(=O)[C@H](CC(C)C)NC(=O)[C@H](CCC(=O)O)NC(=O)[C@@H]2CCCN2C(=O)[C@H](Cc2c[nH]c3ccccc23)NC(=O)[C@H](Cc2c[nH]c3ccccc23)NC(=O)CCC(=O)O)CSCc2cccc(c2)CSC[C@@H](C(N)=O)NC1=O [GIP-261] (Suc-WWPELC[Thp]LIC-NH2; linker 6-10 via mXylylene) ; IC50 = 10 to 79.4 nM

---

# Measurement target: GIPR (CHO-K1-hGIPR cells) (Homo sapiens, UniProt P48546)
# Construct: host or cells: CHO-K1
# Sequence (P48546 22-466): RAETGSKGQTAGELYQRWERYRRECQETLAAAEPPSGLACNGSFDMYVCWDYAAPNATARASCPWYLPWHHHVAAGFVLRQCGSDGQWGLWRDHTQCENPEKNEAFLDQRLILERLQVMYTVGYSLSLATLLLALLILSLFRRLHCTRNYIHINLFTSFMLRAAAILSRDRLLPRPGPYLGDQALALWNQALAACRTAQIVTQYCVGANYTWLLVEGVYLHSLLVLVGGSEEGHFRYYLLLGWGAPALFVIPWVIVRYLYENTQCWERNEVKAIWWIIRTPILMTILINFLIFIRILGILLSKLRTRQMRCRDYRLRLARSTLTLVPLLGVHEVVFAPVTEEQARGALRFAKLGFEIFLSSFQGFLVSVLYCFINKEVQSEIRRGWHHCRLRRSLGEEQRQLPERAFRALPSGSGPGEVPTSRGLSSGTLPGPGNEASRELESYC
# Method notes: FACS binding assay
# Applied conditions: competition with 20 nM GIP-057, 4° C. for 1 hour, read-out: pIC50 Category (converted)
*1 amine or outer side, *2 acyl side, *3 side chain or, on linkers, in order; H or OH if unused. Where a SMILES comes first, the peptide text is derived from it. Bridges are numbered along the chain shown (N, C = ends). [ ]: non-standard residue; d: D form. The star is where a group is joined. X5 = NC(=O)[C@H](CCCCNC(=O)CN1CCN(CC(=O)O)CCN(CC(=O)O)CCN(CC(=O)O)CC1)NC(=O)CCC(=O)NCCCOCCOCCOCCCN*; Trp(5-Cl) = N[C@@H](Cc1c[nH]c2ccc(Cl)cc12)C(=O)O; Pyridine(2,6-diCH2) = c1cc(C[*:1])nc(C[*:2])c1; mXylylene = c1cc(C[*:1])cc(C[*:2])c1; Bta = N[C@@H](Cc1csc2ccccc12)C(=O)O; Hyp = O=C(O)[C@@H]1C[C@@H](O)CN1; Thp = NC1(C(=O)O)CCOCC1; Aib = CC(C)(N)C(=O)O
Can you tell me IC50 for the items I'm about to list?

Note to self: IC50 recorded for CC[C@H](C)[C@@H]1NC(=O)[C@H](CC(C)C)NC(=O)C(C)(C)NC(=O)[C@@H](NC(=O)[C@H](CC(C)C)NC(=O)[C@H](CCC(=O)O)NC(=O)[C@@H]2CCCN2C(=O)[C@H](Cc2c[nH]c3ccccc23)NC(=O)[C@H](Cc2csc3ccccc23)NC(=O)[C@H](CC(=O)O)NC(C)=O)CSCc2cccc(c2)CSC[C@@H](C(=O)NCCCOCCOCCOCCCNC(=O)CCC(=O)N[C@@H](CCCCNC(=O)CN2CCN(CC(=O)O)CCN(CC(=O)O)CCN(CC(=O)O)CC2)C(N)=O)NC1=O [GIP-273] (Ac-D[Bta]WPELC[Aib]LIC-X5; linker 7-11 via mXylylene) was 100 to 794 nM

Record CC(=O)N[C@@H](CC(=O)O)C(=O)N[C@@H](Cc1c[nH]c2ccccc12)C(=O)N[C@@H](Cc1c[nH]c2ccc(Cl)cc12)C(=O)N1C[C@H](O)C[C@H]1C(=O)N[C@@H](CCC(=O)O)C(=O)N[C@H](CC(C)C)C(=O)N[C@H]1CSCc2cccc(n2)CSC[C@@H](C(N)=O)NC(=O)[C@H](Cc2c[nH]c3ccccc23)NC(=O)[C@H](CC(C)C)NC(=O)C2(CCOCC2)NC1=O [GIP-355] (Ac-DW[Trp(5-Cl)][Hyp]E[dL]C[Thp]LWC-NH2; linker 7-11 via Pyridine(2,6-diCH2)) , field IC50: > 1000 nM

In plain terms, CC[C@H](C)[C@@H]1NC(=O)[C@H](CC(C)C)NC(=O)C2(CCOCC2)NC(=O)[C@@H](NC(=O)[C@@H](CC(C)C)NC(=O)[C@H](C)NC(=O)[C@@H]2C[C@@H](O)CN2C(=O)[C@H](Cc2c[nH]c3ccc(Cl)cc23)NC(=O)[C@H](Cc2c[nH]c3ccccc23)NC(=O)[C@H](CC(=O)O)NC(C)=O)CSCc2cccc(n2)CSC[C@@H](C(N)=O)NC1=O [GIP-386] (Ac-DW[Trp(5-Cl)][Hyp]A[dL]C[Thp]LIC-NH2; linker 7-11 via Pyridine(2,6-diCH2)) has a documented IC50 of < 10 nM
